assay: E. coli DRC41 culture turbidity changes, primary screen, E. coli filamentation inducer project, strain DRC41, OD650, 48 h (AID 1152);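 also: E. coli MC1000 strain DRC41 lacking acrAB efflux pump and sulA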; settings: E. coli DRC41 (acrAB sulA), higher = more signal, called active from +8 up or from −8 down
Exercise: for every item that follows, state its recorded z-score.
# output: bare number, no unit

What does the data say about its z-score? Entry: COCCCNC(=O)[C@@]1(c2ccc([N+](=O)[O-])cc2)CC(=O)N(C2CCCCC2)[C@@H]1c1ccc(CO)cc1
0.857

Tell me the measured z-score of O=C1OCCC/C=C\[C@H]2OC34C=CCN(CCN5CCOCC5)C(=O)[C@H]3N(CCCCCO)C(=O)[C@@H]4C12 (some centres undefined) , please.
-0.938

What z-score value was documented for this molecule, COc1ccc([Si](C)(C)[C@H]2[C@H](CCO)O[C@@]3(C(=O)N(Cc4ccc(N5CCCCC5=O)cc4)c4ccccc43)[C@@H]2C)cc1 ?
0.178

Returns the measured z-score for the input molecule. Input: O=C(O)[C@@H]1Cc2c([nH]c3ccccc23)[C@@H](c2ccccc2)N1
0.327

* * *

experiment: MM1S cell viability effects, profiling panel, calcein-AM fluorescence, 48 h, basal (AID 1165); details: higher = more signal;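 also: viability of MM1S multiple myeloma cells under basal unstimulated conditions; test concentration not given here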
Experimental Readout: z-score
Response field accepts a number only; no unit should be typed.

Could you tell me which z-score is on file for Cc1ccc(N2C(=O)c3ccccc3[C@](C)(C(=O)NCC(C)C)[C@@H]2c2ccc(CO)cc2)nc1 ?
-0.359

Entry under review: C[C@]1(C(=O)NCc2ccccc2)c2ccccc2C(=O)N(Cc2cc(C(F)(F)F)cc(C(F)(F)F)c2)[C@H]1c1ccc(CO)cc1 . Reported z-score?
-0.951

# lookup: z-score of CCOC(=O)[C@H]1C/C=C/C[C@H](C(=O)OCC)C(=O)O[C@H]2[C@@H](OC)O[C@H](CO)[C@@H](OC(=O)Nc3ccc(Br)cc3)[C@@H]2OC1=O
-3.28

Query: z-score; subject: C=C(COC)/C(=C/C[C@@H](OC(=O)c1ccncc1)c1ccc(OCCO)cc1)c1cc(C(=O)OC)ccc1OC
-0.312

Any idea what z-score was measured for COC(=O)Cn1c(C(=O)N2CCCC2)cc2c1C[C@H]1CN(C(=O)c3ccccc3)[C@@](Cc3ccccc3)(C(=O)OC)[C@@H]21 ?
0.875

Given the entry C=C[C@H](OC)[C@@H](OC(=O)Nc1ccc(SC)cc1)c1ccc(OC)c(O)c1 , report its measured z-score.
0.898

Query: z-score; subject: [N-]=[N+]=NCc1ccccc1C[C@@]1(C(=O)N2CCOCC2)N=C(c2ccc(OCCCO)cc2)O[C@@H]1c1ccccc1N=[N+]=[N-]
-2.19

* * *

molecular target: Neurogenic locus notch homolog protein 3 (Homo sapiens); assay: NOTCH3 binders on small-molecule microarray, primary screen, biochemical, 635/667 nm fluorescence (AID 1096); conditions: NOTCH3 binding, 635 nm fluorescence, higher = more signal
Lab note: compare composite z-score against 1. Equal or greater, write 1.0. Smaller, write 0.0.

In plain terms: is recorded composite z-score at least 1 for C=C(CCCC)/C(=C/C[C@@H](OC(=O)c1ccncc1)c1cccc(OCCO)c1)c1cc(C(=O)OC)ccc1OC ?
1.0

Does the molecule CC[C@H]1C2=C3C(CC[C@H]4C(OC)OC[C@](C)([C@@H]34)N(C(=O)OC(C)(C)C)C2)C(CO)C1CO (some centres not stated) have recorded composite z-score that is 1 or more?
1.0

Could you please find out whether CCOC(=O)C1=CC[C@@H](c2ccccc2)N(S(=O)(=O)c2ccc(C)cc2)[C@H]1C has composite z-score that meets 1 or exceeds it?
1.0

Please check the record CN1C2C=C(c3ccc(CO)cc3)C(C3C(=O)N(C(N)=O)C(=O)C32)C1c1cccs1 (configuration not stated) and state if its composite z-score is at or above 1.
0.0

Is reported composite z-score greater than or equal to 1 here: COCCOC(=O)N1C(=O)[C@@]2(c3cc(C#CC4=CCCCC4)ccc31)[C@H](C(=O)NC[C@H](O)c1ccccc1)[C@H]1C(=O)O[C@H](c3ccccc3)[C@H](c3ccccc3)N1[C@@H]2c1ccc(OCCO)cc1
1.0

Is composite z-score for Cc1ccc(S[C@]2(C(=O)NC(C)C)CC(=O)N(Cc3cc(C(F)(F)F)cc(C(F)(F)F)c3)[C@@H]2c2ccc(CO)cc2I)cc1 at or above 1?
0.0

Confirm if composite z-score reported for the molecule COCCOC(=O)N1C(=O)[C@@]2(c3cc(C#CCC(C(=O)OC)C(=O)OC)ccc31)[C@H](c1ccccc1OCCO)N1[C@H](c3ccccc3)[C@H](c3ccccc3)OC(=O)[C@H]1[C@@H]2C(=O)N1CCCCCCC1 is 1 or above.
1.0

* * *

Hi there, I'd appreciate the recorded composite z-score for every entry that follows.
experiment: small-molecule binders of probe aNOTCH2, primary screen, biochemical, small-molecule microarray, 635/667 nm fluorescence (AID 1121); conditions: higher = more signal;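 also: score merges feature fluorescence read at 667 nm with its signal to noise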
# answer = number (no unit)

What value of composite z-score has been recorded for this entry: CO[C@H]1O[C@H](CO)[C@@H](OC(=O)Nc2ccc(Oc3ccccc3)cc2)[C@H](OC(=O)Nc2ccccc2-c2ccccc2)[C@H]1OC(=O)Nc1ccccc1-c1ccccc1
-0.0519

Query (molecule): CC[C@H]1C2=C3C(CC[C@H]4C(OC)OC[C@](C)([C@@H]34)N(C(=O)OC(C)(C)C)C2)C(CO)C1CO (some centres not stated) ; field requested: composite z-score
0.437

Fill in: composite z-score of CO[C@H]1COC(=O)[C@@H](OCc2ccccc2)C=C[C@H](C)[C@@H](OC)COC(=O)[C@H](OCc2ccccc2)C=C[C@@H]1C is ___
-0.179

Which composite z-score value is on record for CCN1C(C)=C(C(=O)OC)[C@@H](c2ccccc2)N2C(=O)[C@@]3(C(=O)OC)O[C@@]12[C@@H]1C(=O)N(c2ccccc2)C(=O)[C@@H]13 ?
-0.153

composite z-score lookup needed for CO[C@H]1COC(=O)CC=C[C@H](C)[C@@H](OC)COC(=O)CC=C[C@@H]1C , thanks.
-0.14

# get_value(readout='composite z-score', item= CC1=C([C@H](O)CCc2ccccc2)[C@H](CO)[C@@H]2C(=O)N(Cc3ccccc3)C(=O)[C@@H]2C1 )
-0.117

Which composite z-score value belongs to C[N+](C)(C)CCCC[C@@H]1NC(=O)[C@H]2C[C@@H](C(=O)NCc3ccc(F)cc3)[C@@H](c3cccc(OCCO)c3)N2C1=O ?
-0.179

* * *

Can you tell me composite z-score for the items I'm about to list?
test system: PRMT1 (protein arginine N-methyltransferase 1); experiment: PRMT1 binders on small-molecule microarrays, primary screen, biochemical, small-molecule microarray, 635 nm fluorescence (AID 1088); conditions: small-molecule microarray binding, higher = more signal;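 also: binding of Prmt1 protein to compounds spotted on small-molecule microarray slides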
I'd appreciate a reply containing only the number, no unit.

I would be grateful if you could share the reported composite z-score for C=CCC(OC(C)=O)[C@@H]1[C@@H](N(Cc2ccc(-c3ccccc3)cc2)C(=O)c2ccc(-c3ccccc3)cc2)c2cc(OCCCO)ccc2N1C(=O)Cc1ccc(OC)cc1 (stereo partly drawn) .
-0.22

Entry COC(=O)Cn1c(C(=O)N2CCCC2)cc2c1C[C@H]1CN(C(=O)c3ccccc3)[C@@](Cc3ccc(OC)cc3)(C(=O)OC)[C@@H]21 : reported composite z-score = ?
-0.709

# query: composite z-score of entry COc1ccc(CCN2C(=O)[C@@]3(c4ccc([N+](=O)[O-])cc4)CC(=O)N(CC45CC6CC(CC(C6)C4)C5)[C@@H]3c3ccc(CO)cc32)cc1
1.55

Give its composite z-score value. Item: [N-]=[N+]=NCc1ccccc1C[C@]1(C(=O)N2CCCCC2)N=C(c2ccc(OCCCO)cc2)O[C@H]1c1ccccc1CN=[N+]=[N-]
1.55

Which composite z-score value is on record for COc1cc(Cc2cc3c(c(CCc4ccccc4)n2)[Si](C(C)C)(C(C)C)OC3)cc(OC)c1OC ?
0.735

Reported composite z-score for COC(=O)c1c(CC[C@@H](CO)NC(=O)N[C@H](Cn2cc(-c3cncn3C)nn2)C(C)C)oc(C(C)=O)c1C(=O)OC : what is it?
1.09

Requested field: composite z-score. Item: COc1cc(CO)cc(I)c1O[C@H]1C=C(C(=O)NCCO)C[C@@H](N(CC2CCCCC2)C(=O)c2cc3ccccc3oc2=O)[C@@H]1O
-0.449

Bench note: what composite z-score did CC(C)[Si](OCC[C@H]1O[C@]2(C(=O)N(Cc3ccccc3)c3ccccc32)[C@@H](C)[C@@H]1[Si](C)(C)O)(C(C)C)C(C)C show?
0.489

What value of composite z-score has been reported for the following compound? C=CCOC(=O)[C@@H]1[C@H]2C(=O)O[C@H](c3ccccc3)[C@H](c3ccccc3)N2[C@H](c2ccc(OCCOC(=O)[C@H]3C[C@H]4C(=O)N5CCC[C@H]5C(=O)N4[C@H]3c3ccc(O)cc3)cc2)[C@@]12C(=O)Nc1ccccc12
1.51

Item C=CCC(OC(C)=O)[C@@H]1[C@@H](N(Cc2cc3ccccc3o2)C(=O)c2ccc(C)cc2)c2cc(OCCCO)ccc2N1C(=O)c1ccc2ccccc2n1 (stereo partly drawn) has what recorded composite z-score?
0.207

Which value of composite z-score has been reported for C=C(CCCC)/C(=C/C[C@H](OC(=O)c1ccncc1)c1cccc(OCCO)c1)c1cc(C(=O)OC)ccc1OC in the records?
1.4

Please give the measured composite z-score for this compound: C=CCc1cccc([C@@H]2[C@@H](C)CC[C@H]3C(=O)N4[C@H](c5cccc(CC=C)c5)[C@@H](C)CC[C@H]4C(=O)N23)c1
0.592

Need composite z-score of CC(C)[Si]1(C(C)C)O[C@@H](c2ccccc2)c2cc(C3CC3)nc(-c3ccc(Oc4ccccc4)cc3)c21 , thanks.
-0.63

What does the data say about its composite z-score? Entry: C[C@]1(C(=O)NCCN2CCOCC2)c2ccccc2C(=O)N(Cc2ccccc2)[C@H]1c1ccc(CO)cc1
-0.804

What value of composite z-score has been recorded for this entry: CO[C@H]1COC(=O)[C@H](C)COC(=O)[C@H](Cc2ccccc2)NC(=O)CC=C[C@H]1C
-0.0111

Using the record for C#C[C@H](O[Si](C#Cc1ccccc1)(C(C)C)C(C)C)c1ccccc1 , report its composite z-score.
0.0132

Which composite z-score value belongs to C[C@H]1C2[C@H](Cc3ccccc3)NC(=O)[C@]23C(=O)N[C@H](Cc2ccccc2)C(=O)N[C@@H](Cc2ccccc2)C(=O)NC/C=C\C/C=C/C3[C@@H]2O[C@]12C (stereo partly drawn) ?
-0.0599

Look up composite z-score: CN(C)CCCC[C@@H]1NC(=O)[C@@H]2C[C@H](C(=O)O)[C@H](c3ccc(O)cc3)N2C1=O
1.41

Entry C#CCNC(/C=C/c1ccccc1)CO (stereo not drawn) : reported composite z-score = ?
0.142

May I ask what composite z-score has been recorded for C[C@]1(C(=O)NCc2ccccc2)c2ccccc2C(=O)N(Cc2cc(C(F)(F)F)cc(C(F)(F)F)c2)[C@H]1c1ccc(CO)cc1 ?
1.58

Please report the recorded composite z-score for CN(C)C(=O)[C@@]1(Cc2ccccc2N=[N+]=[N-])N=C(c2ccc(OCCCO)cc2)O[C@H]1c1ccccc1CN=[N+]=[N-] .
1.56

Reported composite z-score, compound C[N+](C)(C)CCCC[C@@H]1NC(=O)[C@H]2C[C@@H](C(=O)NCc3ccc(F)cc3)[C@@H](c3cccc(OCCO)c3)N2C1=O : ____
1.47

Entry under review: C=CCNC(=O)[C@H]1[C@@H]2C(=O)O[C@@H](c3ccccc3)[C@@H](c3ccccc3)N2[C@@H](c2ccc(O)cc2)[C@]12C(=O)Nc1ccc(C#CCNC(N)=O)cc12 . Reported composite z-score?
0.0982
